assay.explanation: Plasma and brain levels after i.v. dosing (blood-brain barrier)
Assay type: in vivo, rat
applied.conditions: male, SD, rat, brain, iv; 5 mg/kg, 4 h
quantity: Kp at 4 h
Answer with the value's number alone.

# compound CC1(C)CCC2(C(=O)NO)CCC3(C)C(C(=O)C=C4C5(C)C=C(C#N)C(=O)C(C)(C)C5CCC43C)C2C1 (stereo not shown) ; its Kp at 4 h = 0.28

* * *

assay.explanation: Microsomal metabolic stability, dog
Assay type: in vitro ADME
applied.conditions: dog, dog liver microsomes, pH 7.4
quantity: CLint scaled (mL/min/kg)
Give the quantity in mL/min/kg, number only.

Value of measured CLint scaled for the entry CC1(C)CCC2(C(=O)NO)CCC3(C)C(C(=O)C=C4C5(C)C=C(C#N)C(=O)C(C)(C)C5CCC43C)C2C1 (stereo not shown) : 51

* * *

assay.explanation: Microsomal metabolic stability, human
Format: in vitro ADME
applied.conditions: human, human liver microsomes, pH 7.4
quantity: CLint scaled (mL/min/kg)
Field format: number, assumed mL/min/kg, no unit text.

Notebook: CC1(C)CCC2(C(=O)NO)CCC3(C)C(C(=O)C=C4C5(C)C=C(C#N)C(=O)C(C)(C)C5CCC43C)C2C1 (stereo not shown) , CLint scaled read as 34

* * *

assay.explanation: Plasma and brain levels after i.v. dosing (blood-brain barrier)
Type: in vivo, rat
applied.conditions: male, SD, rat, plasma, intravenous; 5 mg/kg, i.v., 4 h; read-out: Plasma
quantity: concentration at 4 h (ng/mL)
Write down the numeric answer in ng/mL and omit the unit.

Short answer for CC1(C)CCC2(C(=O)NO)CCC3(C)C(C(=O)C=C4C5(C)C=C(C#N)C(=O)C(C)(C)C5CCC43C)C2C1 (stereo not shown) : concentration at 4 h was 39.5

* * *

assayed.target: Keap1 BTB domain (48-180) (Homo sapiens, UniProt Q14145)
Construct: truncated form of Keap1 (residues 48-180 and residues 48-149)
Sequence (Q14145 48-180): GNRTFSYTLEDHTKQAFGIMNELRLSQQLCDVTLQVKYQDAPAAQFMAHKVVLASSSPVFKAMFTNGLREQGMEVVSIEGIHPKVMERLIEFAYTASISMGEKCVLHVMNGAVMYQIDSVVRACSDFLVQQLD
assay.explanation: SPR binding to truncated Keap1 (48-180)
applied.conditions: read-out: KD, Keap1 BTB domain fragment
quantity: Kd (µM)
Only the number, expressed in µM, is required.

Form: item CC1(C)CCC2(C(=O)NO)CCC3(C)C(C(=O)C=C4C5(C)C=C(C#N)C(=O)C(C)(C)C5CCC43C)C2C1 (stereo not shown) [Cpd.51] ; test system Keap1 BTB domain (48-180) (Homo sapiens, UniProt Q14145); Kd: 31.3

* * *

assay.explanation: Plasma and brain levels after i.v. dosing (blood-brain barrier)
Assay type: in vivo, rat
applied.conditions: male, SD, rat, brain, iv; 5 mg/kg, 0.25 h
quantity: Kp at 0.25 h
Number only, no unit.

Entry CC1(C)CCC2(C(=O)NO)CCC3(C)C(C(=O)C=C4C5(C)C=C(C#N)C(=O)C(C)(C)C5CCC43C)C2C1 (stereo not shown) [Cpd.51] ; Kp at 0.25 h = 0.07

* * *

assayed.target: Keap1 BTB domain fragment (48-149) (Homo sapiens)
Sequence (Q14145 48-149): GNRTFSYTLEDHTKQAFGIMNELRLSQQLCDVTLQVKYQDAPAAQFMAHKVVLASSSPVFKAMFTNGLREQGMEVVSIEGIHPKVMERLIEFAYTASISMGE
assay.explanation: SPR binding to truncated Keap1 (48-149)
quantity: Kd (µM)
Please reply with the bare figure in µM and do not write the unit itself.

Entry CC1(C)CCC2(C(=O)NO)CCC3(C)C(C(=O)C=C4C5(C)C=C(C#N)C(=O)C(C)(C)C5CCC43C)C2C1 (stereo not shown) , Kd reported as 67.2

* * *

assay.explanation: Plasma and brain levels after i.v. dosing (blood-brain barrier)
Assay type: in vivo, rat
applied.conditions: male, SD, rat, brain, iv; 5 mg/kg, 1 h
quantity: Kp at 1 h
Just the number, please, no unit attached.

Entry CC1(C)CCC2(C(=O)NO)CCC3(C)C(C(=O)C=C4C5(C)C=C(C#N)C(=O)C(C)(C)C5CCC43C)C2C1 (stereo not shown) , Kp at 1 h reported as 0.16

The measured values listed here are drawn from paper PMC13081163.
